MEASUREMENT NOTES: Plasma concentration in CD-1 mouse at 15 mg/kg, ip measured after 1 hr
Type: ADME, organism-based
MEASURE: concentration at 1 h (ng/mL)
One number for each entry, in ng/mL.

State the recorded concentration at 1 h for this entry: `C=CC(=O)N1CCN(c2nc(OC[C@@H]3CCCN3C)nc3c2CCN(c2cc(O)cc4ccccc24)C3)CC1`
970
